System: ALK tyrosine kinase receptor (Homo sapiens) | Read-out: Ki | Origin: multiple publications

Request: Provide Ki value for the following compound: COc1cc(C2CCNCC2)ccc1Nc1cc(Cc2cccc(F)c2F)nc2cn[nH]c(=O)c12
Response: 15 nM

Request: Tell me Ki reported for CC(c1ccccc1)c1cnc(C(N)=O)c(Nc2ccc(N3CCN(C)CC3)cc2)c1 (centres unmarked)
Response: 100 to 1000 nM

Request: Determine from records and report Ki for COc1cc(N2CCNCC2)ccc1Nc1nc(Cc2c(Cl)cccc2Cl)cc2nc[nH]c(=O)c12
Response: 6 nM
